# Tested on: OVCAR-8 ovarian
# assayMethodText: NCI tumour cell line growth inhibition, 48 h
readoutLabel: TGI

So what does the record say about TGI for O=[N+]([O-])c1ccc(Cl)cc1N/N=C/c1cccs1 ?
> 100 µM

So what does the record say about TGI for NC(=S)N/N=C(\C(=O)Nc1ccc(Cl)c(Cl)c1)C1=NN(c2ccccc2)C(c2cccc([N+](=O)[O-])c2)CC1=O (configuration not stated) ?
> 100 µM

So what does the record say about TGI for Cn1c(=O)c2[nH]c(-n3nc(-c4ccccc4)cc3N)nc2n(C)c1=O ?
97.7 µM

So what does the record say about TGI for CN(Cc1ccccc1)C1(N(C)Cc2ccccc2)CC1 ?
> 100 µM

So what does the record say about TGI for O=C1OC(C(O)C(O)C(O)CO)C(O)C1O (configuration not stated) ?
> 100 µM

So what does the record say about TGI for CCOC(=O)CCC(NC(=O)c1ccc(NCc2ccc3nc(-c4ccccc4)c(Cl)nc3c2)c2ccccc12)C(=O)OCC (configuration not stated) ?
> 100 µM

So what does the record say about TGI for O=C(CC(=O)c1ccccc1NC1=Cc2ccccc2C(=O)C1=O)C(=O)NC1=C(Cl)C(=O)c2ccccc2C1=O ?
12.2 µM

So what does the record say about TGI for C=C1C(=O)O[C@H]2[C@H]1CC(=O)/C(C)=C\CC[C@@]1(C)O[C@@H]21 ?
7.81 µg/mL

So what does the record say about TGI for O=C(NC(CO)CO)c1ccc2cc(C(=O)N3CC(CCl)c4ccc([N+](=O)[O-])cc43)[nH]c2c1 (configuration not stated) ?
> 100 µM

So what does the record say about TGI for O=c1c2cccnc2ncn1CCCN1CCOCC1 ?
> 100 µM

So what does the record say about TGI for CC(C)C(/C=C/c1ccccc1)=N\NC(=S)NN ?
> 100 µM

So what does the record say about TGI for CN1c2ccccc2C(C)(C)C12CC(c1ccc(Cl)c(S(=O)(=O)N3CCCC3)c1)=NO2 (configuration not stated) ?
> 100 µM
